Reference source for all entries: patent US20060257406A1

Reported IC50 values for the following binders.
Target: T1, human TNFα (human, UniProt P01375 77-233)
T1 construct: also called TAR1; TNF alpha
T1 sequence (P01375 77-233 limits assumed): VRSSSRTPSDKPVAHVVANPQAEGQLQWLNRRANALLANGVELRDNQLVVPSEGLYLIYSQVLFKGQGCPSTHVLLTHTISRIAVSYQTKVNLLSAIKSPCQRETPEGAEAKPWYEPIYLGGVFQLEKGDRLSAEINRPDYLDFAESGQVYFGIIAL
Assay: TNF receptor assay (ELISA): inhibition of TNF binding to plate-bound TNF receptor 1-Fc

binder	meas_value
TAR1-5-19d4 (other) DIQMTQSPSSLSASVGDRVTITCRASQSIDSYLHWYQQKPGKAPKLLIYSASELQSGVPSRFSGSGSGTDFTLTISSLQPEDFATYYCQQVVWRPFTFGQGTKVEIKRGGGGSGGGGSGGGGSGGGGSGGGGSDIQMTQSPSSLSASVGDRVTITCRASQSVKEFLWWYQQKPGKAPKLLIYMASNLQSGVPSRFSGSGSGTDFTLTISSLQPEDFATYYCQQKFKLPRTFGQGTKVEIK	2 to 5 nM

[Q] Give the measured IC50 of TAR1-5-19 d1 (other) DIQMTQSPSSLSASVGDRVTITCRASQSIDSYLHWYQQKPGKAPKLLIYSASELQSGVPSRFSGSGSGTDFTLTISSLQPEDFATYYCQQVVWRPFTFGQGTKVEIKRGGGGSGGGGSGGGGSDIQMTQSPSSLSASVGDRVTITCRASQSIYDALEWYQQKPGKAPKLLIYTASRLQSGVPSRFSGSGSGTDFTLTISSLQPEDFATYYCQQVMQRPVTFGQGTKVEIK .
[A] ~15 nM

[Q] Please do the same for TAR1-5-19d5 (other) scFv: DIQMTQSPSSLSASVGDRVTITCRASQSIDSYLHWYQQKPGKAPKLLIYSASELQSGVPSRFSGSGSGTDFTLTISSLQPEDFATYYCQQVVWRPFTFGQGTKVEIKRGGGGSGGGGSGGGGSGGGGSGGGGSDIQMTQSPSSLSASVGDRVTITCRASQSIYDALEWYQQKPGKAPKLLIYTASRLQSGVPSRFSGSGSGTDFTLTISSLQPEDFATYYCQQVMQRPVTFGQGTKVEIK as well.
[A] ~8 nM
